molecular target: Angiotensin II receptor type-1 (Oryctolagus cuniculus) (UniProt P34976); assay: Inhibition of angiotensin II induced contraction in rabbit aortic ring, activity is expressed as IC50
Sequence (P34976 whole entry, looked up): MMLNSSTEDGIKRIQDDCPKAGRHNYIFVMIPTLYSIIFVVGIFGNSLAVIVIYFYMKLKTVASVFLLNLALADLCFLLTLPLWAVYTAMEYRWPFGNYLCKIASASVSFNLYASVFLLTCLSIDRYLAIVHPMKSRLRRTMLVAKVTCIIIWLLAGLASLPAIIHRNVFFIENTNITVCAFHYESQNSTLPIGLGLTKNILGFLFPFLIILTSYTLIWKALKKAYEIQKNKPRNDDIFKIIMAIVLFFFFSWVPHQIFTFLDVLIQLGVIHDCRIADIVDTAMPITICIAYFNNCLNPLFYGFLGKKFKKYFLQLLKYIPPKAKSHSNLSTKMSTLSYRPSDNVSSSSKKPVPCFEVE
# note: boundary value 40 nM maps to -1; IC50 below it maps to 1

[
  {
    "SMILES_REPR": "CCCCc1ncc(/C=C2/C(=O)N(CCCC)C(=O)N2Cc2cccs2)n1Cc1ccc(C(=O)OC)cc1",
    "MEASURED_TARGET": "Angiotensin II receptor type-1 (Oryctolagus cuniculus) (UniProt P34976)",
    "CLASS_LABEL": -1
  },
  {
    "SMILES_REPR": "CCCCc1ncc(/C=C2/C(=O)N(CCCC)C(=O)N2Cc2ccoc2)n1Cc1ccc(C(=O)OC)cc1",
    "MEASURED_TARGET": "Angiotensin II receptor type-1 (Oryctolagus cuniculus) (UniProt P34976)",
    "CLASS_LABEL": -1
  },
  {
    "SMILES_REPR": "CCCCc1ncc(/C=C2/C(=O)N(CCCC)C(=O)N2Cc2ccccn2)n1Cc1ccc(C(=O)OC)cc1",
    "MEASURED_TARGET": "Angiotensin II receptor type-1 (Oryctolagus cuniculus) (UniProt P34976)",
    "CLASS_LABEL": -1
  },
  {
    "SMILES_REPR": "CCCCc1ncc(/C=C2/C(=O)NC(=O)N2Cc2ccc(Cl)cc2)n1Cc1ccc(C(=O)O)cc1",
    "MEASURED_TARGET": "Angiotensin II receptor type-1 (Oryctolagus cuniculus) (UniProt P34976)",
    "CLASS_LABEL": 1
  },
  {
    "SMILES_REPR": "CCCCc1ncc(/C=C2/C(=O)NC(=O)N2CCCC)n1Cc1ccc(C(=O)O)cc1",
    "MEASURED_TARGET": "Angiotensin II receptor type-1 (Oryctolagus cuniculus) (UniProt P34976)",
    "CLASS_LABEL": 1
  },
  {
    "SMILES_REPR": "CCCCc1ncc(/C=C2/C(=O)N(CCCC)C(=O)N2Cc2csc(C)c2)n1Cc1ccc(C(=O)O)cc1",
    "MEASURED_TARGET": "Angiotensin II receptor type-1 (Oryctolagus cuniculus) (UniProt P34976)",
    "CLASS_LABEL": 1
  },
  {
    "SMILES_REPR": "CCCCc1ncc(/C=C2/C(=O)NC(=O)N2Cc2cccs2)n1Cc1ccc(C(=O)OC)cc1",
    "MEASURED_TARGET": "Angiotensin II receptor type-1 (Oryctolagus cuniculus) (UniProt P34976)",
    "CLASS_LABEL": 1
  },
  {
    "SMILES_REPR": "CCCCc1ncc(/C=C2/C(=O)N(CCCC)C(=O)N2Cc2csc(N)n2)n1Cc1ccc(C(=O)O)cc1",
    "MEASURED_TARGET": "Angiotensin II receptor type-1 (Oryctolagus cuniculus) (UniProt P34976)",
    "CLASS_LABEL": 1
  },
  {
    "SMILES_REPR": "CCCCc1ncc(/C=C2/C(=O)NC(=O)N2Cc2ccccc2)n1Cc1ccc(C(=O)O)cc1",
    "MEASURED_TARGET": "Angiotensin II receptor type-1 (Oryctolagus cuniculus) (UniProt P34976)",
    "CLASS_LABEL": 1
  },
  {
    "SMILES_REPR": "CCCCc1ncc(/C=C2/C(=O)N(CCCC)C(=O)N2CCCC)n1Cc1ccc(C(=O)O)cc1",
    "MEASURED_TARGET": "Angiotensin II receptor type-1 (Oryctolagus cuniculus) (UniProt P34976)",
    "CLASS_LABEL": 1
  },
  {
    "SMILES_REPR": "CCCCc1ncc(/C=C2/C(=O)N(CCCC)C(=O)N2Cc2cccs2)n1Cc1ccc(C(=O)O)cc1",
    "MEASURED_TARGET": "Angiotensin II receptor type-1 (Oryctolagus cuniculus) (UniProt P34976)",
    "CLASS_LABEL": 1
  }
]
